The reported measurements were obtained from patent US20230096766A1.

test: in vitro; details: human, Caco-2, Caco-2 (cm/sec)
Where a SMILES comes first, the peptide text is derived from it. Bridges are numbered along the chain shown (N, C = ends). [ ]: non-standard residue; d: D form. The star is where a group is joined. NMePhe(3-Cl) = CN[C@@H](Cc1cccc(Cl)c1)C(=O)O; NMehPhe = CN[C@@H](CCc1ccccc1)C(=O)O; NMeF = CN[C@@H](Cc1ccccc1)C(=O)O; CH2CONHtBu = CC(C)(C)NC(=O)C*; NMeL = CN[C@@H](CC(C)C)C(=O)O; NMeA = CN[C@@H](C)C(=O)O; Piperidide = C1CCN(*)CC1; NBuGly = CCCCNCC(=O)O; NPrGly = CCCNCC(=O)O; Ethyl(2-OH) = OCC*
MEASURED_ENDPOINT: Papp (×10⁻⁶ cm/s)
Give bare numbers, in ×10⁻⁶ cm/s.

CCCN1CC(=O)N(C)[C@@H](CC(C)C)C(=O)N[C@H](C(=O)N2CCCCC2)CC(=O)N(C)[C@@H](C)C(=O)N[C@@H](COCCO)C(=O)N(C)[C@@H](CC(C)C)C(=O)N(C)[C@@H](Cc2cccc(Cl)c2)C(=O)N[C@@H](CC(C)C)C(=O)N(C)[C@@H](CCc2ccccc2)C(=O)N(C)[C@@H](CC(C)C)C(=O)N[C@@H]([C@@H](C)O)C1=O [Compound A05] ([NMeA]S(Ethyl(2-OH))[NMeL][NMePhe(3-Cl)]L[NMehPhe][NMeL]T[NPrGly][NMeL]D-Piperidide; lactam N-11)	0.9

Moving on to another compound below.
IN: Look up Papp for this compound: CCCCN1CC(=O)N(C)[C@@H](Cc2ccccc2)C(=O)N[C@@H](COCC(=O)NC(C)(C)C)C(=O)N(C)[C@@H](CC(C)C)C(=O)N[C@@H]([C@@H](C)O)C(=O)N(CCC)CC(=O)N(C)[C@@H](Cc2ccccc2)C(=O)N(C)[C@@H](CC(C)C)C(=O)N[C@@H](CC(C)C)C(=O)N(C)[C@@H](C)C(=O)N[C@H](C(=O)N2CCCCC2)CC1=O [AP17] ([NBuGly][NMeF]S(CH2CONHtBu)[NMeL]T[NPrGly][NMeF][NMeL]L[NMeA]D-Piperidide; lactam N-11)
OUT: 0.72
